Assay: Comparison of ^177Lu-IMP-241 and ^111In-IMP-241 pretargeting using hMN-14 × m679 F(ab′)2 bsMAb (24 h bsMAb clearance)
Type: in vivo, nude mice
Settings: female, NCr nude, mouse, kidney, iv, total radioactivity, Kidney, 3 hour after peptide; read-out: Percent Injected Dose Per Gram
*1 amine or outer side, *2 acyl side, *3 side chain or, on linkers, in order; H or OH if unused. Where a SMILES comes first, the peptide text is derived from it. Side-chain parts run from the residue outwards. [ ]: non-standard residue; d: D form. The star is where a group is joined. DOTA = O=C(O)CN1CCN(CC(=O)O)CCN(CC(=O)*)CCN(CC(=O)O)CC1; NH(2-(imidazol-4-yl)ethyl) = c1ncc(CCN*)[nH]1; Suc = O=C(CCC(=O)[*:2])[*:1]
Observable: tissue uptake at 3 h

Molecule	Observable	Measurement
NC(=O)[C@H](CCCCNC(=O)CNC(=O)CCC(=O)NCCc1cnc[nH]1)NC(=O)[C@@H](Cc1ccc(O)cc1)NC(=O)[C@H](CCCCNC(=O)CNC(=O)CCC(=O)NCCc1cnc[nH]1)NC(=O)[C@H](Cc1ccccc1)NC(=O)CN1CCN(CC(=O)O)CCN(CC(=O)O)CCN(CC(=O)O)CC1 [^177Lu-IMP-241, metal not drawn] ({DOTA}-FK([Gly-Suc-NH(2-(imidazol-4-yl)ethyl)])[dY]K([Gly-Suc-NH(2-(imidazol-4-yl)ethyl)])-NH2)	tissue uptake at 3 h	3.61 %ID/g
